test system: Saccharomyces cerevisiae; assay: Effect on localization of chitin synthase Chs3p in CHS6 deficient yeast MDY335 assessed as induction of chitin bud scars at 25 uM by fluorescence microscopy; type: functional, organism-based
Calls of active or inactive are those of the source. The calls are words filed in the database; no cut-off is given here.
Return exactly one item of label 1 (active), label 0 (inactive)

Below are worked cases with known answers.
compound | classLabel
CC(=O)c1ccc(N2CCN(Cc3cc(F)ccc3F)CC2)cc1 | label 1
c1ccc(CN2CCC(NCC(c3ccccc3)c3ccccc3)CC2)cc1 | label 0
COc1ccc(CNC2C3CC4CC(C3)CC2C4)c2ccccc12 (configuration not stated) | label 0
O=C(Nc1ccccc1)c1ccccc1/N=C/c1cc(Br)ccc1O | label 0

## Task Record lookup: outcome of this test for C/C=C(\C)CN1CCN(c2ccc(C(C)=O)cc2)CC1 ?
## Result label 1

## Task Record lookup: outcome of this test for CC1(C(=O)NC(=S)NNC(=O)c2cccnc2)CCCCC1 ?
## Result label 0

## Task Record lookup: outcome of this test for O=C1/C(=C/c2ccc(O)cc2)SC(=S)N1C1CCCCC1 ?
## Result label 0

## Task Record lookup: outcome of this test for CCn1c2ccccc2c2cc(CNC3CCCC3)ccc21 ?
## Result label 0

## Task Record lookup: outcome of this test for CC(C)Cc1ccc(C(C)C(=O)N/N=C/c2ccc(N(C)C)cc2)cc1 (configuration not stated) ?
## Result label 0

* * *

Below, each of the molecules is paired with its reported Activity value.
system: Saccharomyces cerevisiae; experiment: Growth inhibition of apl2/4 deficient yeast MDY334 cells assessed as cell growth at 25 uM relative to wild-type; type: functional; set-up: scale not given: the % may be the effect or the level left
Quick note: give the figure in %, leave out the unit.

molecule | assaySystem | measured
COC(=O)Oc1c(Br)c(C)c2oc(=O)sc2c1Br | Saccharomyces cerevisiae | 70
COc1ccc(CNC2C3CC4CC(C3)CC2C4)c2ccccc12 (stereo not given) | Saccharomyces cerevisiae | 70
O=C1NC(=O)/C(=C\c2cccc(Cl)c2Cl)S1 | Saccharomyces cerevisiae | 70
COC(=O)c1ccccc1/N=C/c1c(O)c(Br)cc2oc3c(c12)CCCC3 | Saccharomyces cerevisiae | 50

Alright, here's another molecule for you.
Activity in this record for CC1(C(=O)NC(=S)NNC(=O)c2cccnc2)CCCCC1 : 70

* * *

test system: Saccharomyces cerevisiae; assay: Effect on localization of chitin synthase Chs3p in CHS6 deficient yeast MDY335 assessed as induction of chitin bud scars at 25 uM by fluorescence microscopy; type: functional, organism-based
The source made the active and inactive calls. No cut-off for these calls is given here.
Return exactly one item of active, inactive

Below are worked cases with known answers.
smilesStr | classLabel
O=C1NC(=O)/C(=C\c2cccc(Cl)c2Cl)S1 | inactive
CC(=O)c1ccc(N2CCN(Cc3ccco3)CC2)cc1 | active

Consider the record given below.
## Task Record lookup: outcome of this test for Cc1cc(O)c(C(C)C)cc1NS(=O)(=O)c1ccc(Cl)cc1 ?
## Result inactive

The measurements presented in this section are drawn from ChEMBL document CHEMBL1147086.
